Target: T1, human collagen type I, acid soluble, extracted from placenta (Sigma C7774) (human, UniProt P02452 162-1218; P08123 80-1119)
T1 construct: tissue extract, gelled and dried in wells; also called dried human collagen; h-Collagen
T1 sequence (P02452 162-1218 limits assumed, chain 1 of 2): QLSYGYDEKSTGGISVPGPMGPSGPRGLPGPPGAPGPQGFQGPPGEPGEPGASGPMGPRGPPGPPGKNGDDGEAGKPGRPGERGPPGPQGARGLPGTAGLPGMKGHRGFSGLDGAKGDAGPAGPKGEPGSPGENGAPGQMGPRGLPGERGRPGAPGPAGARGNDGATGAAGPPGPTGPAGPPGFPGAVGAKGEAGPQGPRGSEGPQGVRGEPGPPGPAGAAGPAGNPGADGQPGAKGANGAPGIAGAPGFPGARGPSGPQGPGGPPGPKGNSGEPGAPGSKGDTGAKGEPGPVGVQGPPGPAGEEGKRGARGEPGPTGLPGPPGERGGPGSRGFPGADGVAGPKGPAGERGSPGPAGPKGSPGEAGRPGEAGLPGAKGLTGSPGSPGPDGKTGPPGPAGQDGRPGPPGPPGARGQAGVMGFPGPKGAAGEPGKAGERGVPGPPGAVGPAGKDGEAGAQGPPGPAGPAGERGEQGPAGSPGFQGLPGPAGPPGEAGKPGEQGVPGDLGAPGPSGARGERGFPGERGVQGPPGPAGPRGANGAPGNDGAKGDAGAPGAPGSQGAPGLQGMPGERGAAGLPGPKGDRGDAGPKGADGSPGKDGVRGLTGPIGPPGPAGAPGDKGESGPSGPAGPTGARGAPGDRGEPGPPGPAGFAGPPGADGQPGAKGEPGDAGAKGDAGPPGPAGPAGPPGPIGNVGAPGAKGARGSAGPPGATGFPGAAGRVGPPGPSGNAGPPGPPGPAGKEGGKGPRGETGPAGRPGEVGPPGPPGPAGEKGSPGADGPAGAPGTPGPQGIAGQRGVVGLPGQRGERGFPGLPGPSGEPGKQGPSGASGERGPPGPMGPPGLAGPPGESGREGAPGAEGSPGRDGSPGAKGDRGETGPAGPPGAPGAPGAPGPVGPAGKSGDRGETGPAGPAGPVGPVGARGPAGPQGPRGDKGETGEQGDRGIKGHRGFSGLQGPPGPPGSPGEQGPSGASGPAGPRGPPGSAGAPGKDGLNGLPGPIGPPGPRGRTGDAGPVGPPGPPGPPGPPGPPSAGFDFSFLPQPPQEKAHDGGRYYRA
T1 sequence (P08123 80-1119 limits assumed, chain 2 of 2): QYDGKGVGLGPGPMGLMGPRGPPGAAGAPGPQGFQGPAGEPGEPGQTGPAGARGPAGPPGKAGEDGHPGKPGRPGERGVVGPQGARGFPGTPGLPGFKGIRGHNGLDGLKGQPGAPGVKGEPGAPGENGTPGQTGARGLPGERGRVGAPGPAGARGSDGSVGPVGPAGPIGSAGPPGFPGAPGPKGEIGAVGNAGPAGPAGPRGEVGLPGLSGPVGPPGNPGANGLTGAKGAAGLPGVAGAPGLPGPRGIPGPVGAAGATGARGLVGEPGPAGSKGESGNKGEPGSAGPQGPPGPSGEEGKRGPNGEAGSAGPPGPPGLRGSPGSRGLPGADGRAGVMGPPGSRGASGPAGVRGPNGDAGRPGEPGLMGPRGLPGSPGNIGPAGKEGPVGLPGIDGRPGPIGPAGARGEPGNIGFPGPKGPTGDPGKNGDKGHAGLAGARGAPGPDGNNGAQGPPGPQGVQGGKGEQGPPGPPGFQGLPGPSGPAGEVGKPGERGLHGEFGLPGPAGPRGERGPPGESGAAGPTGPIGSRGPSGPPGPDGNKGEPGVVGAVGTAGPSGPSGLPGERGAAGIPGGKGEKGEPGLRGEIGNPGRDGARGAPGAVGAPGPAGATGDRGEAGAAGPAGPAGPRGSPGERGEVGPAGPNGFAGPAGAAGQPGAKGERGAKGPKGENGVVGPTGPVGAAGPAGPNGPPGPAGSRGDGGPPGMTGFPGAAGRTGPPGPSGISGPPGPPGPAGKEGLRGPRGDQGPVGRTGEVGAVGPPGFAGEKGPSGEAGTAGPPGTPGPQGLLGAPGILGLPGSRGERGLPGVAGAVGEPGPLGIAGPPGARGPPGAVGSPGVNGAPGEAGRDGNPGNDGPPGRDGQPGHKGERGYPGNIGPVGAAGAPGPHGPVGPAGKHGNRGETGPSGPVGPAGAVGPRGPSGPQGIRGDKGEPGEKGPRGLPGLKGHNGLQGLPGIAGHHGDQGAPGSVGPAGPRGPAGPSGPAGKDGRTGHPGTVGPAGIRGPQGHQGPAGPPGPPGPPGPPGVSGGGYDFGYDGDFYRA
Test: dried collagen assay
Bridge positions count the residues as written; N and C are the ends. Square brackets hold non-standard residues; d marks the D form. Primed or numbered codes have the meaning given here. Side chains are listed from the residue outwards. Ends that are not written are not given here. Tyr(3-Cl) = N[C@@H](Cc1ccc(O)c(Cl)c1)C(=O)O; Gd^T(3) = GdDTPA attached via thiourea; Cha = N[C@@H](CC1CCCCC1)C(=O)O; Gd^T″ = GdDTPA-thiourea
quantity_measured: % bound (%)

INSERT INTO assay_data (binder, quantitative_result) VALUES
  ('{Gd^T″}-GQWHCTTRFPK(Gd^T″)HYCLYG (disulfide 5-14 (inferred)) [Compound ID 958]', 45);

P: {Gd^T″}-GK([Gly-Gd^T″])WHCTTYFPHH[Tyr(3-Cl)]CLYG (disulfide 5-14 (inferred)) [Compound ID 952]
Q: {Gd^T(3)}-GQWHCTT[Cha]FPHH[dY]CLYG (disulfide 5-14; not fully specified (C-terminus)) [Compound ID 918]
Name the one with the greater % bound value, either P or Q as given. Lab note: record the label of whichever item you select.
P
(P: 52%, Q: 19%)
